# Tested on: LOX IMVI
# experimentDescription: NCI tumour cell line growth inhibition, 48 h
The source made the active and inactive calls. No stated cut-off is given here; in the data, active = GI50 up to about 1.1 µM and inactive = higher.
Choose the fitting class; nothing outside active, inactive is accepted.

Example cases with answers are listed next.
C[C@]12CC[C@@H]3c4cc(OCC(F)(F)F)c(O)cc4CC[C@H]3[C@@H]1CC[C@@H]2O | inactive
Cc1cc(C)c(S(=O)(=O)N2CCCN(S(=O)(=O)c3c(C)cc(C)cc3C)OCCCON(S(=O)(=O)c3c(C)cc(C)cc3C)CCCN(S(=O)(=O)c3c(C)cc(C)cc3C)OCCCO2)c(C)c1 | inactive
CC1=NC(C(=O)O)Cc2c1[nH]c1ccccc21 (stereo not given) | inactive
CC12C=C[C@]3(CC[C@@H]4[C@@](C)(CO)CCC[C@]4(C)C3CC1)C2 (stereo not given in full) | inactive

Now examine the next entry.
-- ask Which outcome was entered for the compound COC(=O)C1CCC(=O)N1CN(C(C)=O)c1cc(OC)ccc1OC (stereo not given) in this test?
-- reply inactive

====

As shown below, each of these molecules has a reported GI50 value.
# System: SN12C
# experimentDescription: NCI tumour cell line growth inhibition, 48 h
Activity calls are given as the source filed them. Cut-off read from the data, not from the text of the source: active = GI50 up to about 1.1 µM and inactive = higher.

Here is how some molecules turned out for GI50.
c1cncc(CNCc2cccnc2)c1 | > 100 µM (inactive)
Cc1ccc(NC(=S)NNC(=O)c2cc(-c3ccccc3)nc3ccccc23)cc1 | 16.2 µM (inactive)
CCCCCCCSCC1C(=O)C23C(O)C1CCC2C12COC3(O)C(O)C1C(C)(C)CCC2O (stereo not drawn) | 8.41 µM (inactive)

# GI50 (molecule: O=C(O)c1cc(O)nc(SCc2ccccc2)n1 ) is > 100 µM (inactive)

# GI50 (molecule: CSC1NC(c2ccccc2)=C(C#N)C(=O)N1C1OCC(OC(C)=O)C(OC(C)=O)C1OC(C)=O (stereo not drawn) ) is > 100 µM (inactive)

# GI50 (molecule: Nc1ccc(-c2ccc(Nc3cc(S(=O)(=O)O)c(N)c4c3C(=O)c3ccccc3C4=O)cc2)c(S(=O)(=O)O)c1 ) is > 100 µM (inactive)

# GI50 (molecule: CC(=O)Nc1ccc(-c2nc3ccccc3s2)cc1Cl ) is > 100 µM (inactive)

# GI50 (molecule: CC(C)N(/C(F)=N\C(=O)Nc1ccccc1C(F)(F)F)C(C)C ) is 37.2 µM (inactive)

====

# Tested on: SR
# experimentDescription: NCI tumour cell line growth inhibition, 48 h
Active and inactive are the calls of the source. Rule as the data show it: active = GI50 up to about 1.1 µM and inactive = higher.
assayEndpoint: GI50

O=c1c2c(-c3ccccc3)onc2n(-c2ccccc2)c(=O)n1-c1ccccc1 | > 100 µM (inactive)
CCN(CCCN(CC)C(=O)N[C@@H](Cc1ccccc1)C(=O)NC)C(=O)N[C@@H](Cc1ccccc1)C(=O)NC | > 100 µM (inactive)

# GI50 (compound: NC(=O)N/N=C(/Cc1nc2ccc(C(=O)c3ccccc3)cc2nc1O)C(=O)Nc1ccc(C(F)(F)F)cc1[N+](=O)[O-] ) is 45.4 µM (inactive)

# GI50 (compound: O=C(Nc1ccc(Br)c2ccccc12)c1ccc2ccccc2c1O ) is 6.44 µM (inactive)

# GI50 (compound: O=C(NNC(=S)NCc1ccccc1)C12CC3CC(CC(C3)C1)C2 ) is 9.33 µM (inactive)

====

# Tested on: SF-268
# experimentDescription: NCI tumour cell line growth inhibition, 48 h
The source made the active and inactive calls. No stated cut-off is given here; in the data, active = GI50 up to about 1.1 µM and inactive = higher.
Choose the fitting class; nothing outside yes = active, no = inactive is accepted.

Example cases with answers are listed next.
Cc1ccc(C(=O)/C=C2\Nc3ccccc3SC2=O)c(C)c1 | no
O=C(Cc1ccccc1)NN1C(=O)C(Cl)C1c1cc(Br)ccc1O (stereo not drawn) | no
COc1ccccc1NC(=S)N/N=C/c1c(C)n(C)n(-c2ccccc2)c1=O | no
O=C(CC(C(=O)c1ccsc1)c1cccs1)c1ccccc1 (stereo not drawn) | no

-- ask Which outcome was entered for the molecule Cc1ccc(S(=O)(=O)N/N=C2\CC3C4C=CC3C2C4)cc1 (stereo not drawn) in this test?
-- reply no

-- ask Which outcome was entered for the molecule COc1cc(/C=N/n2c(-c3ccccc3)nn(C(C)=O)c2=O)cc(OC)c1OC in this test?
-- reply no

-- ask Which outcome was entered for the molecule CCc1nn(CN2CCN(C)CC2)c(=S)n1/N=C\c1ccc(-c2ccc([N+](=O)[O-])cc2)o1 in this test?
-- reply no

-- ask Which outcome was entered for the molecule Cc1nc(-c2cc3cc(Cl)ccc3oc2=O)cc2c1c(=O)oc1ccc(Cl)cc12 in this test?
-- reply no

-- ask Which outcome was entered for the molecule COc1ccc(CCc2cc(OC)cc(OC)c2)cc1 in this test?
-- reply no

-- ask Which outcome was entered for the molecule Cc1cc(-c2ccccc2)cc2[n+]1CC=C2.[O-][Cl+3]([O-])([O-])[O-] in this test?
-- reply no

-- ask Which outcome was entered for the molecule CCOC(=O)NC(Nc1ccc(S(=O)(=O)Nc2ncccn2)cc1)(C(=O)OCC)C(F)(F)F (stereo not drawn) in this test?
-- reply no
